- target under test: T1, Human BCMA (human, UniProt Q02223 1-54, limits assumed)
- T1 construct: also called huBCMA; B-cell maturation antigen
- T1 sequence (looked up): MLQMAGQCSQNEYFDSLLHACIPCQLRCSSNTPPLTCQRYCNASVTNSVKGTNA
- method description: SPR, IgG immobilised, human BCMA analyte
Recorded measurements of koff, one per entry
Answer in s⁻¹, number only, no unit symbol.

Sample records with koff:
binder: A02_Rd4_6nM_C25 (antibody, V domains shown, IgG) VH: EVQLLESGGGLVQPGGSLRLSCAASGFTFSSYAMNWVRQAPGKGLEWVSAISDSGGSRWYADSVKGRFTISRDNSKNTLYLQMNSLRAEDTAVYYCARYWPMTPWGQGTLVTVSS VL: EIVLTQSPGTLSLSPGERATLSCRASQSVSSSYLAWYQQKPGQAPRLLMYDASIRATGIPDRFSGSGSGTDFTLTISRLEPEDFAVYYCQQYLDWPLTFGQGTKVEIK
quantity: koff
numeric value: 0.00018

binder: A02_Rd4_6nM_C03 (antibody, V domains shown, IgG) VH: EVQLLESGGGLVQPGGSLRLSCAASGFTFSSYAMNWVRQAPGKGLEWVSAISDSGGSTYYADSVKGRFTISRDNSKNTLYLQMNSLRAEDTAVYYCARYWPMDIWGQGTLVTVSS VL: EIVLTQSPGTLSLSPGERATLSCRASQSVSNLYLAWYQQKPGQAPRLLMYDASIRATGIPDRFSGSGSGTDFTLTISRLEPEDFAVYYCQQYQGWPLTFGQGTKVEIK
quantity: koff
numeric value: 0.000126

binder: C01_Rd4_6nM_C24 (antibody, V domains shown, IgG) VH: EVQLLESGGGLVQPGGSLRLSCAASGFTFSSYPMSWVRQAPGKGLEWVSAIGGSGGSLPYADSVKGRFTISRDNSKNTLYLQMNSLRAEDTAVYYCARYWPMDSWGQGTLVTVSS VL: EIVLTQSPGTLSLSPGERATLSCRASQSVSPEYLAWYQQKPGQAPRLLIYDASSRAPGIPDRFSGSGSGTDFTLTISRLEPEDFAVYYCQQYSVWPLTFGQGTKVEIK
quantity: koff
numeric value: 0.00348

GET /value?item= COMBO_Rd4_0.6nM_C20 (antibody, V domains shown, IgG) VH: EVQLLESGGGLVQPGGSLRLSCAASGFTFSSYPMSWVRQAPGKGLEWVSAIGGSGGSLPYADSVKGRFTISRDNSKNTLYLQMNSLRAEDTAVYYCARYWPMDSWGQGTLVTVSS VL: EIVLTQSPGTLSLSPGERATLSCRASQSVSYLYLAWYQQKPGQAPRLLMYDASIRATGIPDRFSGSGSGTDFTLTISRLEPEDFAVYYCQQYMEWPLTFGQGTKVEIK &field=koff returns 0.000146

Please fill in: koff reported for A02_Rd4_0.6nM_C10 (antibody, V domains shown, IgG) VH: EVQLLESGGGLVQPGGSLRLSCAASGFTFSSYAMNWVRQAPGKGLEWVSAISGWGGSLPYADSVKGRFTISRDNSKNTLYLQMNSLRAEDTAVYYCARYWPMDSWGQGTLVTVSS VL: EIVLTQSPGTLSLSPGERATLSCRASQSVSAQYLAWYQQKPGQAPRLLMYDASIRATGIPDRFSGSGSGTDFTLTISRLEPEDFAVYYCQQYQRWPLTFGQGTKVEIK = 0.000296

The value of koff measured for the binder COMBO_Rd4_6nM_C12 (antibody, V domains shown, IgG) VH: EVQLLESGGGLVQPGGSLRLSCAASGFTFSSYPMSWVRQAPGKGLEWVSAALGSGGSTYYADSVKGRFTISRDNSKNTLYLQMNSLRAEDTAVYYCARYWPMDSWGQGTLVTVS VL: EIVLTQSPGTLSLSPGERATLSCRASQSVSASYLAWYQQKPGQAPRLLMYDASIRATGIPDRFSGSGSGTDFTLTISRLEPEDFAVYYCQQYMSWPLTFGQGTKVEIK turned out to be 0.00027

response.value for COMBO_Rd4_0.6nM_C30 (antibody, V domains shown, IgG) VH: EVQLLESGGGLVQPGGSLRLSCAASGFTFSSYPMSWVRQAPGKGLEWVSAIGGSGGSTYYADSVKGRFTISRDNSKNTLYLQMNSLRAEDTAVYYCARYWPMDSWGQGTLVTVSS VL: EIVLTQSPGTLSLSPGERATLSCRASQSVSYMYLAWYQQKPGQAPRLLIYDASIRATGIPDRFSGSGSGTDFTLTISRLEPEDFAVYYCQQYKSWPLTFGQGTKVEIK (field: koff) = 0.000282

The reported value for C01_Rd4_6nM_C09 (antibody, V domains shown, IgG) VH: EVQLLESGGGLVQPGGSLRLSCAASGFTFSSYPMSWVRQAPGKGLEWVSATVGSGGSIGYADSVKGRFTISRDNSKNTLYLQMNSLRAEDTAVYYCARYWPMDSWGQGTLVTVSS VL: EIVLTQSPGTLSLSPGERATLSCACSQSVSSTYLAWYQQKPGQAPRLLIYDASSRAPGIPDRFSGSGSGTDFTLTISRLEPEDFAVYYCQQYSAWPLTFGQGTKVEIK in terms of koff is 0.0128

In plain terms, COMBO_Rd4_0.6nM_C09 (antibody, V domains shown, IgG) VH: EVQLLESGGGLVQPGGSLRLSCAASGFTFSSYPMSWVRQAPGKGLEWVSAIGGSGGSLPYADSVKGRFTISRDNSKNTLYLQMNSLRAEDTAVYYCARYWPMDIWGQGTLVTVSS VL: EIVLTQSPGTLSLSPGERATLSCRASQSVSSTYLAWYQQKPGQAPRLLMYDASIRATGIPDRFSGSGSGTDFTLTISRLEPEDFAVYYCQQYQEWPLTFGQGTKVEIK has a documented koff of 0.000319

The binder COMBO_Rd4_0.6nM_C05 (antibody, V domains shown, IgG) VH: EVQLLESGGGLVQPGGSLRLSCAASGFTFSSYAMNWVRQAPGKGLEWVSAIGGSGGSTYYADSVKGRFTISRDNSKNTLYLQMNSLRAEDTAVYYCARYWPMSLWGQGTLVTVSS VL: EIVLTQSPGTLSLSPGERATLSCRASQSVSSTYLAWYQQKPGQAPRLLMYDASIRATGIPDRFSGSGSGTDFTLTISRLEPEDFAVYYCQQYMSWPLTFGQGTKVEIK showed koff equal to 0.000497
